Test system: 015B
Design: MTT antiproliferation assay, absorbance at 570 nm, human cancer cell line panel
measurement conditions: 3-day MTT; inhibitor; read-out: Table S1. IC50 of CCT271850 determined by MTT and clonogenic assays (CA). / All cell lines were tested at least 2 times. / 3-day MTT
experimental readout: pIC50
Kindly note that pIC50 refers to -log10 of the concentration in mol/L and answer with the value alone.

Give measured pIC50 for COc1cc(-c2cnn(C)c2)ccc1Nc1ncc2ccnc(N[C@@H](C)C(C)(C)C)c2n1 [34h, CCT271850] (015B).
6.46

---

Test system: CaoV3
Design: MTT antiproliferation assay, absorbance at 570 nm, human cancer cell line panel
measurement conditions: 3-day MTT; inhibitor; read-out: Table S1. IC50 of CCT271850 determined by MTT and clonogenic assays (CA). / All cell lines were tested at least 2 times. / 3-day MTT
experimental readout: IC50 (nM)
Give a bare numeral; the unit nM is implied.

Tell me its IC50 on CaoV3: COc1cc(-c2cnn(C)c2)ccc1Nc1ncc2ccnc(N[C@@H](C)C(C)(C)C)c2n1 [34h, CCT271850]
360
